- Tested on: RXF 631
- measurement description: NCI tumour cell line growth inhibition, 48 h
The source made the active and inactive calls. No stated cut-off is given here; in the data, active = GI50 up to about 1.1 µM and inactive = higher.
# Lookup of reported GI50 keyed by entry

compound: CCOc1ccccc1/N=C(/NC(=O)CC)SC
tgt: RXF 631
GI50: > 10 µM (inactive)

compound: CC(=O)NNc1nc(C)c(C(=O)NNC(=O)C(=O)Nc2cccc(C(C)=O)c2)s1
tgt: RXF 631
GI50: 26.6 µM (inactive)

compound: COc1ccc(C(=O)Cc2ccc(Cl)cc2)cc1OC
tgt: RXF 631
GI50: > 100 µM (inactive)

compound: CCOC(=O)/C(C#N)=C/c1[nH]c(C(=O)OCc2ccccc2)c(C)c1C
tgt: RXF 631
GI50: > 100 µM (inactive)

[Q] Entry CCCCCCCCCCCCCCCC(=O)OCC1OC(n2cc(F)c(=O)[nH]c2=O)C(NC(=O)N(CCCl)N=O)C(O)C1O (stereo not given) has what GI50?
[A] 3.08 µM (inactive)
